molecular target: human Nav1.7 (Homo sapiens (Human), UniProt Q15858); assay: Human Nav1.7 inhibitory activity evaluation (automated patch clamp QPatch16X, HEK293A cells stably expressing human Nav1.7 and human Navβ1); assay type: cell-based; details: HEK293A cells stably expressing human Nav1.7 and human Navβ1, automated patch clamp QPatch16X
Sequence (Q15858 whole entry): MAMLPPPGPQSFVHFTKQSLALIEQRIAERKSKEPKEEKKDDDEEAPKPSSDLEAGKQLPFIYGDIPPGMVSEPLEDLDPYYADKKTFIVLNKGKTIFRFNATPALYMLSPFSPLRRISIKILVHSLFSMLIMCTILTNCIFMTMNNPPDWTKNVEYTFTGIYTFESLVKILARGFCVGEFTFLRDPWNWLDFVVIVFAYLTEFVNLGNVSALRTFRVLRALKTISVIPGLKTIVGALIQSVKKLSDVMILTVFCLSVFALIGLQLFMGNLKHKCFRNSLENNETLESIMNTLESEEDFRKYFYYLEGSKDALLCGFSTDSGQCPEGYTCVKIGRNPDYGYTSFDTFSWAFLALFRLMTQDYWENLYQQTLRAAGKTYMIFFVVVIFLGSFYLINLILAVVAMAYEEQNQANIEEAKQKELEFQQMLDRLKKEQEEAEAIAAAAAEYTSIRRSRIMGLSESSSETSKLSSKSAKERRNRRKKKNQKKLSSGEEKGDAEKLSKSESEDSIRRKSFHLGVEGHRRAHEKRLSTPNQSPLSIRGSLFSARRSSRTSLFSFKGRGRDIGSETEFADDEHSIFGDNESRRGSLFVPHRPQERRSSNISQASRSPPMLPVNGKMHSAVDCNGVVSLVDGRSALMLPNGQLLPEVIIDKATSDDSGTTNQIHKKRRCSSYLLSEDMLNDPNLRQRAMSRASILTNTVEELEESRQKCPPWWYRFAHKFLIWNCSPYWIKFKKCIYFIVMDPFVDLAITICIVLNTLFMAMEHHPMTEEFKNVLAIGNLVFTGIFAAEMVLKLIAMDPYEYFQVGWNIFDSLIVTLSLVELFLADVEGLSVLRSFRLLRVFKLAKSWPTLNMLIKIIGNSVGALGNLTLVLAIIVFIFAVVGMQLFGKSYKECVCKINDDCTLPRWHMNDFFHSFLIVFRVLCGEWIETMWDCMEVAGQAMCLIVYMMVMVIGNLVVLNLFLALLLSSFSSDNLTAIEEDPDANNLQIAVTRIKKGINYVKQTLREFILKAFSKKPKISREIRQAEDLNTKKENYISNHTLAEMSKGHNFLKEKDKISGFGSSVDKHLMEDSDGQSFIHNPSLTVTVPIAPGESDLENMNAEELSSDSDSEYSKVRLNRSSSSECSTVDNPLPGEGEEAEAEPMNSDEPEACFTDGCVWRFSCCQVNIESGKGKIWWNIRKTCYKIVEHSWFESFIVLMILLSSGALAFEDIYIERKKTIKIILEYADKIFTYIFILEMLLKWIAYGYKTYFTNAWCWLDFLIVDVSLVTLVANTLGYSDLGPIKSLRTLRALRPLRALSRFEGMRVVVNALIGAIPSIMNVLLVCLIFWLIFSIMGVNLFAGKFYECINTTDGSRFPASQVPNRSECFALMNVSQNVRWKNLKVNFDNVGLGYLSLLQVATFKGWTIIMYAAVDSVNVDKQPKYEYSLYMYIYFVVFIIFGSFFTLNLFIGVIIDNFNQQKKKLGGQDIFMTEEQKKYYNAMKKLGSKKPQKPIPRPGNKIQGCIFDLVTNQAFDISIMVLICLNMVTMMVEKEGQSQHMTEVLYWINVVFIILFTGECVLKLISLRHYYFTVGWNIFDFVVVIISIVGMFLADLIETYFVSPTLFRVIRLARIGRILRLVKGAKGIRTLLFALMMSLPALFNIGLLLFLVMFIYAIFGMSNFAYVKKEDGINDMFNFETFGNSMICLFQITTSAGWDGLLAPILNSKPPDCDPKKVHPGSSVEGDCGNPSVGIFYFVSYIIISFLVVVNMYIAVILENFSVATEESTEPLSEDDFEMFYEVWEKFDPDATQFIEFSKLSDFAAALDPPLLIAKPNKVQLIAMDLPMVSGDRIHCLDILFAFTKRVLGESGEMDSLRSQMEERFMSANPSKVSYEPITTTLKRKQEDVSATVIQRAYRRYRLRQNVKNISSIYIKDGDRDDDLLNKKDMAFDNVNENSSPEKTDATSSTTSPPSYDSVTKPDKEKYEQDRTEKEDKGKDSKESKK
Sequence (Q07699 19-218 partner): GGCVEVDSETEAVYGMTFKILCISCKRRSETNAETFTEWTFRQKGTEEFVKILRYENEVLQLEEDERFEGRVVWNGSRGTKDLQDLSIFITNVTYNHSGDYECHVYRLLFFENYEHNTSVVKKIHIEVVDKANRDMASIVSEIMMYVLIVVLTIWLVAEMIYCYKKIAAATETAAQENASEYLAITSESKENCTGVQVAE
pIC50: −log10 of the molar value.
Listing of recorded pIC50 by entry.

Request: State its pIC50 for this compound: COc1cccc(C2CCc3nc(C(=O)N[C@H]4COc5ccccc5C4)cn3C2)n1 (stereo partly shown) [Example 27]
Result: > 6.00

Request: Return value of pIC50 for input CC1(COCC2CCn3nc(C(=O)N[C@H]4COc5ccc(C#N)cc5C4)cc3O2)CC1 (single isomer, unassigned) [113 (isomer B)] , no commentary.
Result: > 6.00

###

target: UniProtKB Q14524; assay: Human Nav1.5 inhibitory activity evaluation (automated patch clamp QPatch16X, HEK293 cells stably expressing human Nav1.5); type: cell-based; details: human Nav1.5, automated patch clamp
Sequence (Q14524 whole entry): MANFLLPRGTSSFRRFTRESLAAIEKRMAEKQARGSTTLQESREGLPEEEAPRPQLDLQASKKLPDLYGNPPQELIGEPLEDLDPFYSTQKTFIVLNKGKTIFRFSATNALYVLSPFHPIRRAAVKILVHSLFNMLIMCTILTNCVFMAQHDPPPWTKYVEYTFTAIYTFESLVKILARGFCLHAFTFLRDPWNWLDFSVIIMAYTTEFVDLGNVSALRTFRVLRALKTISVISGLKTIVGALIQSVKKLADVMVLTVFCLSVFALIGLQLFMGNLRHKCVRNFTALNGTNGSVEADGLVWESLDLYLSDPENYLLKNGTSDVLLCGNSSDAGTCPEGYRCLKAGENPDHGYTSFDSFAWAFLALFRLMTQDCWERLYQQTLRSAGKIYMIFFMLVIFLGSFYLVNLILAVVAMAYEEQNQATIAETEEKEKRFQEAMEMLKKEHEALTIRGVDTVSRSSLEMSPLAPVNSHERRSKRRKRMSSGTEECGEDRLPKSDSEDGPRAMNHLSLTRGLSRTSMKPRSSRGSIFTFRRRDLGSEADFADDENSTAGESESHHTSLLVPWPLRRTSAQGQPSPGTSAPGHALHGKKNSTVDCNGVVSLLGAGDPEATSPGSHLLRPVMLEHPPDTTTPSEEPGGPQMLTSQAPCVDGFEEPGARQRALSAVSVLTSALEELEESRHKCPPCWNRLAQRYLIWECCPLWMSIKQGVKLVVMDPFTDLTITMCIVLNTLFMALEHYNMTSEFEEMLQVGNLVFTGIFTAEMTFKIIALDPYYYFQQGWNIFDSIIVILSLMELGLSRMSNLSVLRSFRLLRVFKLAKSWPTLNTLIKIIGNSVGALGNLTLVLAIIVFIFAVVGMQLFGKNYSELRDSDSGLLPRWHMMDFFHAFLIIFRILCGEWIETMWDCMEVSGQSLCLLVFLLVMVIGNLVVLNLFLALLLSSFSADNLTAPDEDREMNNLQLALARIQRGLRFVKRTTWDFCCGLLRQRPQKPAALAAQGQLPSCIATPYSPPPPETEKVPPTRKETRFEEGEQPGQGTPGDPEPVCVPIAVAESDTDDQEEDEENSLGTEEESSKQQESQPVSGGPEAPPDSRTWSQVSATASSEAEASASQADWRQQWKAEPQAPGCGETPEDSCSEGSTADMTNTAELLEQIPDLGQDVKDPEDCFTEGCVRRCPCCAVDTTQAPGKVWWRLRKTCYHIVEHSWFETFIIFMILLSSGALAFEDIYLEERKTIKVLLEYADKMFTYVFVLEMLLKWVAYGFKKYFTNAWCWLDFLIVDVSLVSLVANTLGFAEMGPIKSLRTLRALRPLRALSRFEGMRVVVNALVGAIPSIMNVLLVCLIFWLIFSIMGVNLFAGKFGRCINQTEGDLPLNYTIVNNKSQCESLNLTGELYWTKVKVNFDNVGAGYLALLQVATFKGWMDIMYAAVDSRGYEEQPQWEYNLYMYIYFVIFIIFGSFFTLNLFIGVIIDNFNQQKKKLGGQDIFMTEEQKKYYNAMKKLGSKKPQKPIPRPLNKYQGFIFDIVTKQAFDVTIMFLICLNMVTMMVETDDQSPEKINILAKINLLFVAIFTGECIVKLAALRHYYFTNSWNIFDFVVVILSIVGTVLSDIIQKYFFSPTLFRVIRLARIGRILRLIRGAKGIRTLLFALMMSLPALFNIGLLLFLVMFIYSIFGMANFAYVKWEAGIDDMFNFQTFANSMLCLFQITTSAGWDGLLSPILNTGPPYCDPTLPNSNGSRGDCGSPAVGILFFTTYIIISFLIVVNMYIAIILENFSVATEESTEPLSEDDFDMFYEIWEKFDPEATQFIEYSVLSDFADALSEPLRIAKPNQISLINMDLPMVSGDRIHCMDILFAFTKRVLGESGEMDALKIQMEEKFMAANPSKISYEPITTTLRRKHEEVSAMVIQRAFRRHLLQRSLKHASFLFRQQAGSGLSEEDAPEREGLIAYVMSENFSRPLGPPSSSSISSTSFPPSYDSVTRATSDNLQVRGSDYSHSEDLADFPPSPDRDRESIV
pIC50: −log10 of the molar value.
quantity: pIC50

// solved cases for pIC50 follow
| compound | pIC50 |
| --- | --- |
| N#Cc1ccc2c(c1)C(F)[C@@H](NC(=O)c1cc3n(n1)CCC(COCC1CC1)O3)CO2 (single isomer, unassigned) [617 (isomer A)] | ≤ 5.52 |
| O=C(N[C@H]1COc2ccc(C(F)(F)F)cc2C1O)c1cc2n(n1)CCN(CCC1CC1)C2 (stereo partly shown) | 5.52 to 6.00 |
| O=C(N[C@H]1COc2ccc(CCOC(F)F)cc2C1)c1cc2n(n1)CCC(COC(F)F)O2 (single isomer, unassigned) [142 (isomer A)] | 5.52 to 6.00 |
| COc1ccc(-c2ccc3c(c2)C[C@@H](NC(=O)c2cc4n(n2)CCC(C(F)(F)F)O4)CO3)cn1 (stereo partly shown) | ≤ 5.52 |
| O=C(N[C@H]1COc2ccccc2C1)c1cn2c(n1)CCC(OCCOC(F)(F)F)C2 (stereo partly shown) | ≤ 5.52 |
| O=C(N[C@H]1COc2ccc(COCC(F)(F)F)cc2C1)c1cc2n(n1)CC(CCOC(F)F)O2 (stereo partly shown) [Example 214] | 5.52 to 6.00 |
| N#Cc1ccc2c(c1)C[C@@H](NC(=O)c1cc3n(n1)CCN(C1(c4ccc(F)cc4)CC1)C3)CO2 | 5.52 to 6.00 |
| Cn1ccc(-c2ccc3c(c2)C[C@@H](NC(=O)c2cc4n(n2)CC(CCOC(F)(F)F)O4)CO3)n1 (single isomer, unassigned) [213 (isomer A)] | ≤ 5.52 |

Request: Tell me pIC50 of N#Cc1ccc2c(c1)C[C@@H](NC(=O)c1cc3n(n1)CC(COCC1CC1)O3)CO2 (stereo partly shown) when tested on UniProtKB Q14524.
Result: ≤ 5.52

Request: Retrieve pIC50 on UniProtKB Q14524; query O=C(N[C@H]1COc2ccc(C(F)(F)F)cc2C1O)c1cc2n(n1)C[C@H](COCC1CC1)O2 (single isomer, unassigned; isomer a) [576(isomer A)]
Result: ≤ 5.52

Request: # return pIC50 of CC1CCn2nc(C(=O)N[C@H]3COc4ccc(COCC(F)(F)F)cc4C3)cc2OC1 (stereo partly shown) (system: UniProtKB Q14524)
Result: ≤ 5.52

Request: State the measured pIC50 (UniProtKB Q14524) of O=C(N[C@H]1COc2ccc(Cl)cc2C1)c1cc2n(n1)CC(CCN1CC(F)(F)C1)O2 (single isomer, unassigned) [234 (isomer B)]
Result: > 6.00

Request: Please report pIC50 with UniProtKB Q14524 for item N#Cc1ccc2c(c1)C[C@@H](NC(=O)c1cc3n(n1)CCC(CCOC(F)(F)F)O3)CO2 (single isomer, unassigned) [144 (isomer B)] .
Result: ≤ 5.52

Request: For UniProtKB Q14524, give pIC50 of the listed compound: CC1(C)CCn2nc(C(=O)N[C@H]3COc4ccc(C#N)cc4C3)cc2O1
Result: ≤ 5.52

Request: Please indicate recorded pIC50 of O=C(N[C@H]1COc2ccc(Cl)cc2C1)c1cc2n(n1)CC(CCN1CC(F)(F)C1)O2 (stereo partly shown) [Example 233] measured with UniProtKB Q14524.
Result: > 6.00

Request: # return pIC50 for N#Cc1ccc2c(c1)C[C@@H](NC(=O)c1cc3n(n1)CCC(c1ccc(F)cc1)O3)CO2 (stereo partly shown) , test system: UniProtKB Q14524
Result: 5.52 to 6.00

###

Property: IC50; scope: individual compounds
target: human Nav1.7 (Homo sapiens (Human)); assay: Human Nav1.7 inhibitory activity evaluation (automated patch clamp QPatch16X, HEK293A cells stably expressing human Nav1.7 and human Navβ1); assay type: cell-based; details: human Nav1.7, automated patch clamp

Request: Determine its reported IC50: O=C(N[C@H]1COc2ccc(Cl)cc2C1)c1cc2n(n1)CC(CCn1cccn1)O2 (stereo partly shown)
Result: < 1000 nM

Request: Query IC50 for N#Cc1ccc2c(c1)C[C@@H](NC(=O)c1cc3n(n1)CCC(c1ccc(F)cc1)O3)CO2 (stereo partly shown)
Result: < 1000 nM

Request: Answer with reported IC50 of COC1c2cc(C(F)(F)F)ccc2OC[C@@H]1NC(=O)c1cc2n(n1)CC(COCC(F)(F)F)O2 (single isomer, unassigned; isomer a) [597(isomer A)]
Result: < 1000 nM

Request: Complete the entry with IC50 for O=C(N[C@H]1COc2ccc(C(F)(F)F)cc2C1F)c1cc2n(n1)CCN(C1CCOC1)C2 (stereo partly shown)
Result: < 1000 nM

Request: Please look at this compound and report its IC50: N#Cc1ccc2c(c1)C[C@@H](NC(=O)c1cc3n(n1)CC(CC1CCOCC1)O3)CO2 (stereo partly shown)
Result: < 1000 nM

Request: State its IC50 for this compound: O=C(N[C@H]1COc2ccc(COCC(F)(F)F)cc2C1)c1cc2n(n1)CC(COC(F)(F)F)O2 (single isomer, unassigned) [196 (isomer B)]
Result: < 1000 nM

Request: Supply recorded IC50 for N#Cc1ccc2c(c1)C[C@@H](NC(=O)c1cc3n(n1)CC(CCOCC1CC1)O3)CO2 (single isomer, unassigned) [202 (isomer A)] here.
Result: < 1000 nM

Request: Provide one value: measured IC50 of O=C(N[C@H]1COc2ccc(C(F)(F)F)cc2C1O)c1cc2n(n1)CC(CCOCC(F)(F)F)O2 (single isomer, unassigned) [600 (isomer A)]
Result: < 10000 nM

Request: Look up and state reported IC50 for O=C(N[C@H]1COc2ccc(C(F)(F)F)cc2C1)c1cc2n(n1)CCC(C(F)F)O2 (single isomer, unassigned) [161 (isomer A)]
Result: < 1000 nM

Request: Determine from records and report IC50 for Cc1ccc(-c2ccc3c(c2)C[C@@H](NC(=O)c2cc4n(n2)CCC(C(F)(F)F)O4)CO3)cn1 (stereo partly shown)
Result: < 10000 nM

###

molecular target: human Nav1.7 (Homo sapiens (Human), UniProt Q15858); test: Human Nav1.7 inhibitory activity evaluation (automated patch clamp QPatch16X, HEK293A cells stably expressing human Nav1.7 and human Navβ1); assay type: cell-based; conditions: human Nav1.7, automated patch clamp
pIC50: −log10 of the molar value.
quantity: pIC50

Look over these answered cases.
| compound | valueObserved |
| --- | --- |
| CC1(C)Cn2nc(C(=O)N[C@H]3COc4ccc(C(F)(F)F)cc4C3)c(-c3ccn[nH]3)c2O1 | > 5.00 |
| CC(C)(CC1CC1)N1CCn2nc(C(=O)N[C@H]3COc4ccc(C#N)cc4C3)cc2C1 | > 5.00 |
| N#Cc1ccc2c(c1)C[C@@H](NC(=O)c1cc3n(n1)CCC(CSC(F)(F)F)O3)CO2 (single isomer, unassigned) [156 (isomer A)] | > 6.00 |
| N#Cc1ccc2c(c1)C[C@@H](NC(=O)c1cc3n(n1)CCC(CSCC(F)(F)F)O3)CO2 (some centres unmarked) [Example 423] | > 6.00 |
| O=C(N[C@H]1COc2ccc(C(F)(F)F)cc2C1F)c1cc2n(n1)CC[C@H](C(F)F)O2 (single isomer, unassigned; isomer a) [579(isomer A)] | > 6.00 |

Now for another entry.
Request: Item N#Cc1ccc2c(c1)C[C@@H](NC(=O)c1cc3n(n1)C[C@H](CC1CCOCC1)O3)CO2 (single isomer, unassigned; isomer a) [577(isomer A)] : provide pIC50
Result: > 5.00

###

biological target: human Nav1.7 (Homo sapiens (Human), UniProt Q15858); test: Human Nav1.7 inhibitory activity evaluation (automated patch clamp QPatch16X, HEK293A cells stably expressing human Nav1.7 and human Navβ1); assay type: cell-based; details: human Nav1.7, automated patch clamp
The entries below are paired with their reported IC50.

| compound | quantity | valueObserved |
| --- | --- | --- |
| O=C(N[C@H]1COc2ccc(Cl)cc2C1)c1cc2n(n1)CCC(COCC1CCOCC1)O2 (stereo partly drawn) | IC50 | < 1000 nM |

Request: Using human Nav1.7 (Homo sapiens (Human), UniProt Q15858) as the test system, report measured IC50 of O=C(N[C@H]1COc2ccc(-c3cnn(CC(F)(F)F)c3)cc2C1)c1cc2n(n1)CCC(COCC1CC1)O2 (stereo partly drawn) .
Result: < 1000 nM

Request: Quote human Nav1.7 (Homo sapiens (Human), UniProt Q15858) IC50 for entry Cn1ncc(-c2ccc3c(c2)C[C@@H](NC(=O)c2cc4n(n2)CCC(COCC2CC2)O4)CO3)n1 (stereo partly drawn) .
Result: < 10000 nM

Request: Please indicate recorded IC50 of O=C(N[C@H]1COc2ccc(Cl)cc2C1)c1cc2n(n1)CCCC(c1ccccc1)O2 (stereo partly drawn) measured with human Nav1.7 (Homo sapiens (Human), UniProt Q15858).
Result: < 10000 nM

Request: Give reported IC50 for N#CC1(COCC2CCn3nc(C(=O)N[C@H]4COc5ccc(C(F)(F)F)cc5C4)cc3O2)CC1 (single isomer, unassigned) [554 (isomer B)] (human Nav1.7 (Homo sapiens (Human), UniProt Q15858))
Result: < 10000 nM

Request: State, for human Nav1.7 (Homo sapiens (Human), UniProt Q15858), measured IC50 of the compound listed here: N#Cc1ccc2c(c1)C[C@@H](NC(=O)c1cc3n(n1)CC(CCCOCC(F)(F)F)O3)CO2 (single isomer, unassigned) [246 (isomer B)]
Result: < 1000 nM

Request: Print human Nav1.7 (Homo sapiens (Human), UniProt Q15858) IC50 for CCN(CC1Cn2nc(C(=O)N[C@H]3COc4ccc(C#N)cc4C3)cc2O1)CC(F)(F)F (stereo partly drawn) .
Result: < 10000 nM

Request: Send back human Nav1.7 (Homo sapiens (Human), UniProt Q15858) IC50 of O=C(N[C@H]1COc2ccc(CC(F)F)cc2C1)c1cc2n(n1)CCC(C(F)(F)F)O2 (single isomer, unassigned) [173 (isomer A)] only.
Result: < 1000 nM

Request: Fill in: IC50 on human Nav1.7 (Homo sapiens (Human), UniProt Q15858), entry N#Cc1ccc2c(c1)C[C@@H](NC(=O)c1cc3n(n1)CCC(c1c(F)cccc1F)O3)CO2 (stereo partly drawn)
Result: < 1000 nM

Request: Please tell me the measured IC50 for COc1ncccc1C1CCn2nc(C(=O)N[C@H]3COc4ccc(Cl)cc4C3)cc2O1 (stereo partly drawn) ; system: human Nav1.7 (Homo sapiens (Human), UniProt Q15858).
Result: < 1000 nM

Request: Jot down IC50 (human Nav1.7 (Homo sapiens (Human), UniProt Q15858)) of N#Cc1ccc2c(c1)C[C@@H](NC(=O)c1cc3n(n1)CC(COCCOCC(F)(F)F)O3)CO2 (stereo partly drawn) .
Result: < 10000 nM

Request: // output IC50; input O=C(N[C@H]1COc2ccc(CCOC(F)F)cc2C1)c1cc2n(n1)CC(COCC(F)(F)F)O2 (stereo partly drawn) [Example 189] ; system human Nav1.7 (Homo sapiens (Human), UniProt Q15858)
Result: < 1000 nM
